Item-by-item account of Mean efficacy of compound combined with 1 μM of SNP, [%]
- target: soluble guanylate cyclase (sGC), α1 and β1 subunits of guanylate cyclase expressed in Sf9 cells (Homo sapiens, UniProt Q02108+Q02153)
- Construct: made in house; host or cells: Sf9 insect cells (baculovirus co-infection)
- Sequence (Q02108 1-690): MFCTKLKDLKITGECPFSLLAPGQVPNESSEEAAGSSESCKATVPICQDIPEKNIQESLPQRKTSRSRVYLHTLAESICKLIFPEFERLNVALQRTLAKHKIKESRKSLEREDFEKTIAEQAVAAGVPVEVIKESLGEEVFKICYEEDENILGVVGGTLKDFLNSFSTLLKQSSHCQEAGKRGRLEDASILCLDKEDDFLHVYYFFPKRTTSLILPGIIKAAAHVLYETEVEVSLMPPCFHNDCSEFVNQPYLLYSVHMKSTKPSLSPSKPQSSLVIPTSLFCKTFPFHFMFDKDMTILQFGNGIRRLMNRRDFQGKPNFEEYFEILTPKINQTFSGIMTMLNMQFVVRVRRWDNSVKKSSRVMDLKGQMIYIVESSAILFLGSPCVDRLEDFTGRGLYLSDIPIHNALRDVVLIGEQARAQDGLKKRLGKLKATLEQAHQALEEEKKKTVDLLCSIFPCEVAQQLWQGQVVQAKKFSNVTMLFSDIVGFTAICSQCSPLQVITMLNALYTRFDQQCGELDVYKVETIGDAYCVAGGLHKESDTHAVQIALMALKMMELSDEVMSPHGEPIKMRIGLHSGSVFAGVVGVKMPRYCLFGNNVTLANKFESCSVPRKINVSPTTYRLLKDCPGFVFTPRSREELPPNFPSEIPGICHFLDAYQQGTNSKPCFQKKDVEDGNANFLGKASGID
- Sequence (Q02153 1-619): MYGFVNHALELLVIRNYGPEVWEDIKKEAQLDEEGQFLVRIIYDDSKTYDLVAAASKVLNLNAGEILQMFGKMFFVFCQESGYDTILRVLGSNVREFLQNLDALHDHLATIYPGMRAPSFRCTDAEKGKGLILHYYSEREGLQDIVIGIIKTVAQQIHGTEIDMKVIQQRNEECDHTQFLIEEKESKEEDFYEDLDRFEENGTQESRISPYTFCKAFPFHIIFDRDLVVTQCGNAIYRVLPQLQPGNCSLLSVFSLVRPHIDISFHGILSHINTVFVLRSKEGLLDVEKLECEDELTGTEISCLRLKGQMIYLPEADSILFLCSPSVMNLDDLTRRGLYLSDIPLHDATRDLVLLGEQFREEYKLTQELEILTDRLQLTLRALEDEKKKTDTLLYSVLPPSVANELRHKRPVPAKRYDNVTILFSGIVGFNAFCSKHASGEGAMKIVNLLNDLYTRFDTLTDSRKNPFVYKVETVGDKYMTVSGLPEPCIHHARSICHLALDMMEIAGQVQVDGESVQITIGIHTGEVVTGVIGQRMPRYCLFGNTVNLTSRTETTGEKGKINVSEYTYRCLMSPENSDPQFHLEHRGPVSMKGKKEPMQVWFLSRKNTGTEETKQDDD
- assay-summary: Guanylate cyclase assay (formation of cyclic GMP from GTP)
- Format: biochemical
- reported-conditions: compound at 100 μM with 1 μM sodium nitro prusside (SNP); normalized with the activity of 100 μM YC-1 (without SNP) as 100%
Quick note: number first, unit second.

Worked cases, answers included:
molecule="CC(O)CCNC(=O)/C=C/c1ccccc1Sc1ccc(Cl)cc1 (stereo not drawn) [Example 38]" result=259%
molecule="CNCCCCNC(=O)CCc1ccccc1Sc1ccc(Cl)cc1 [Example 13]" result=25%
molecule="O=C(CCc1ccccc1Sc1ccc(Cl)cc1)NC1CCC(O)CC1 (stereo not drawn) [Example 4]" result=28%
molecule="Cc1ccc(Sc2ncccc2/C=C/C(=O)NC2CCC(O)CC2)cc1 (stereo not drawn) [Example 15]" result=204%
molecule="O=C(CCc1cccc(F)c1Sc1ccc(Cl)cc1)NCCCCO [Example 7]" result=80%

Reported Mean efficacy of compound combined with 1 μM of SNP, [%] ( O=C(/C=C/c1ccccc1SC1CCCCC1)NC1CCCCC1O (stereo not drawn) [Example 23] ) = 187%

Reported Mean efficacy of compound combined with 1 μM of SNP, [%] ( Cc1ccc(Sc2ccccc2/C=C/C(=O)NC2CCCCC2O)cc1 (stereo not drawn) [Example 47] ) = 44%

Reported Mean efficacy of compound combined with 1 μM of SNP, [%] ( CC(C)CSc1ccccc1/C=C/C(=O)NC1CCCCC1O (stereo not drawn) [Example 21] ) = 106%

Reported Mean efficacy of compound combined with 1 μM of SNP, [%] ( COc1cccc(Sc2ccccc2/C=C/C(=O)NC2CCCCC2O)c1 (stereo not drawn) [Example 48] ) = 102%

Reported Mean efficacy of compound combined with 1 μM of SNP, [%] ( O=C(/C=C/c1cccnc1Sc1ccccc1)NC1CCC(O)CC1 (stereo not drawn) [Example 19] ) = 120%

Reported Mean efficacy of compound combined with 1 μM of SNP, [%] ( CCCCNC(=O)/C=C/c1ccccc1Sc1ccc(Cl)cc1 [Example 33] ) = 38%

Reported Mean efficacy of compound combined with 1 μM of SNP, [%] ( O=C(/C=C/c1ccccc1Sc1ccccc1)NC1CCCCC1O (stereo not drawn) [Example 46] ) = 121%

Reported Mean efficacy of compound combined with 1 μM of SNP, [%] ( CC(O)CCCNC(=O)CCc1ccccc1Sc1ccc(Cl)cc1 (stereo not drawn) [Example 9] ) = 22%

Reported Mean efficacy of compound combined with 1 μM of SNP, [%] ( CONCCCCNC(=O)CCc1ccccc1Sc1ccc(Cl)cc1 [Example 12] ) = 20%

Reported Mean efficacy of compound combined with 1 μM of SNP, [%] ( OCc1ccc(-c2nn(Cc3ccccc3)c3ccccc23)o1 [YC-1, 1-Benzyl-3-hydroxymethyl-2-furylindazole, reference compound] ) = 224%

Reported Mean efficacy of compound combined with 1 μM of SNP, [%] ( CC(C)CCSc1ccccc1/C=C/C(=O)NCCCO [Example 57] ) = 303%

###

- target: soluble guanylate cyclase (sGC), α1 and β1 subunits of guanylate cyclase expressed in Sf9 cells (Homo sapiens, UniProt Q02108+Q02153)
- Construct: made in house; host or cells: Sf9 insect cells (baculovirus co-infection)
- Sequence (Q02108 1-690): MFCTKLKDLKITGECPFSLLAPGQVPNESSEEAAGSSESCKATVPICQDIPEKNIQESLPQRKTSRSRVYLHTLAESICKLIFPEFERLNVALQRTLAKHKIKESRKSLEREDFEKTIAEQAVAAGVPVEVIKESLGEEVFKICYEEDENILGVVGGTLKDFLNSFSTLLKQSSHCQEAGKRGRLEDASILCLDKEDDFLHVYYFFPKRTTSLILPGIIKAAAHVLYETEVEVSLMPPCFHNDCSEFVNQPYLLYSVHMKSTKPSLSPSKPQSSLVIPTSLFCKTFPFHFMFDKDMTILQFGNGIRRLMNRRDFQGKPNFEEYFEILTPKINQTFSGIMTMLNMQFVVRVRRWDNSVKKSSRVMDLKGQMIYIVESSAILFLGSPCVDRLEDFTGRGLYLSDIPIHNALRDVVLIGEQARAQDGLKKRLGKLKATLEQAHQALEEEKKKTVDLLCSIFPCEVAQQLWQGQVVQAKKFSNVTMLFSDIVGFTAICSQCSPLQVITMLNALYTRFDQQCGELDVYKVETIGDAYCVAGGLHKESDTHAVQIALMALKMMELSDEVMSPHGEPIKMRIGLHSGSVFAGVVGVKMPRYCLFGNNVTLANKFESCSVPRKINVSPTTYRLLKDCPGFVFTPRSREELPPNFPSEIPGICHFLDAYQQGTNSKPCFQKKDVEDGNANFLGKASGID
- Sequence (Q02153 1-619): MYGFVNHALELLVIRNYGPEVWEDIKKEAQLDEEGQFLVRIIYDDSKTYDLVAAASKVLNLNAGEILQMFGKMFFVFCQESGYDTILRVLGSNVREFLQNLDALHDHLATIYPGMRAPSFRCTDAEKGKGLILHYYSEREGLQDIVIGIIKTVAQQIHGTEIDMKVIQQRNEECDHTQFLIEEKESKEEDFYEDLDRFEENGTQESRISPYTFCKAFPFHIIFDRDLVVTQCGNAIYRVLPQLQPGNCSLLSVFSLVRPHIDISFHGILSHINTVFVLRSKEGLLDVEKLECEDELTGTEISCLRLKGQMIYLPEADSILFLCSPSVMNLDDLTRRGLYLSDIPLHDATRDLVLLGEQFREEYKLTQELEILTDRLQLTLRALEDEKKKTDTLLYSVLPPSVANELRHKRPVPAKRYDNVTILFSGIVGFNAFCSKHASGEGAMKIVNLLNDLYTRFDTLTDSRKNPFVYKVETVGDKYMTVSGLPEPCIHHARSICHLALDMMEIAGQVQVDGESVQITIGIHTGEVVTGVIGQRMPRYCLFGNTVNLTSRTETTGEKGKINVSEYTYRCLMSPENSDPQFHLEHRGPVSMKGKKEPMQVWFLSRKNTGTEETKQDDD
- assay-summary: Guanylate cyclase assay (formation of cyclic GMP from GTP)
- Assay type: biochemical
- reported-conditions: (activity of compound at 100 μM with 1 μM SNP)−(activity of compound at 100 μM)/(activity of SNP at 1 μM)−(basal activity of sGC)
- Experimental: Sf9 cells were cultured in Sf-90011 medium supplemented with 10% (v/v) fetal calf serum at 28° C. to give a count of 6×10^5 cells/ml. […] Guanylate cyclase activity was measured by the formation of cyclic GMP from GTP in a total volume of 100 μl. […] Compounds of the present invention were tested at 100 μM with and without 1 μM sodium nitro prusside (SNP). […] Mean basal efficacy, in Table 1, was expressed as a percentage of 100 μM YC-1 (without SNP). […]
Where Mean activation at 100 μM equals or exceeds 4, the correct label is Criterion met; where it does not, the label is Criterion not met.

compound="O=C(/C=C/c1ccccc1Sc1ccc(Cl)cc1)NCCCCCO [Example 35]" assigned_label="Criterion met"

Is Mean activation at 100 μM at least 4? Consider COc1ccc(Sc2ccccc2/C=C/C(=O)NC2CCC(O)CC2)cc1 (stereo not shown) [Example 51]
Criterion met

Is Mean activation at 100 μM at least 4? Consider CC(O)CNC(=O)/C=C/c1ccccc1Sc1ccc(Cl)cc1 (stereo not shown) [Example 37]
Criterion met

Is Mean activation at 100 μM at least 4? Consider O=C(CCc1ccccc1Sc1ccc(Cl)cc1)NCCCCCO [Example 3]
Criterion not met

Is Mean activation at 100 μM at least 4? Consider O=C(/C=C/c1cccnc1Sc1ccccc1)NC1CCC(O)CC1 (stereo not shown) [Example 19]
Criterion met

Is Mean activation at 100 μM at least 4? Consider CC(C)Sc1ccccc1/C=C/C(=O)NC1CCC(O)CC1 (stereo not shown) [Example 24]
Criterion not met

Is Mean activation at 100 μM at least 4? Consider O=C(CCc1cc(F)ccc1Sc1ccc(Cl)cc1)NCCCCO [Example 8]
Criterion not met

Is Mean activation at 100 μM at least 4? Consider CS(=O)(=O)NCCCCNC(=O)CCc1ccccc1Sc1ccc(Cl)cc1 [Example 6]
Criterion not met

Is Mean activation at 100 μM at least 4? Consider CCCCNC(=O)/C=C/c1ccccc1Sc1ccc(Cl)cc1 [Example 33]
Criterion met

// provenance: patent US20040121994A1
